Origin of the recorded values: patent EP4039268A1

target: T1, full-length trimeric SARS-CoV-2 Spike protein (Spike-H6) (SARS-CoV-2, N-glycosylated (22 N-glycosylation sites)); experiment: ELISA screen
T1 construct: also called trimeric Spike; full-length Spike-H6
For each record, write down the corresponding Mean normalized OD.
Give bare numbers, in OD.

Your task in this section: give Mean normalized OD for each listed record.
1. Reg1 CRD-mouse IgG2a-Fc fusion protein (Fc fusion) ISCPEGSNAYSSYCYYFTEDRLTWADADLFCQNMNSGYLVSVLSQAEGNFVASLIKESGTTDANVWTGLHDPKRNRRWHWSSGSLFLYKSWATGSPNSSNRGYCVSLTSNTGYKKWKDDNCDAQYSFVCKFGGGSGGGSGGGS
2. Klrg2 CRD-mouse IgG2a-Fc fusion protein (Fc fusion) SQEQCYYLSEEAQDWEGSQAFCSAHHATLPLLSHTQDFLRKYRITKGSWVGARRGPEGWHWTDGVPLPYQLFPADSEDHPDFSCGGLEEGRLVALDCSSPRPWVCAGGGSGGGSGGGS
3. Reg3g CRD-mouse IgG2a-Fc fusion protein (Fc fusion) YGSYCYALFSVSKNWYDADMACQKRPSGHLVSVLSGAEASFLSSMIKSSGNSGQYVWIGLHDPTLGYEPNRGGWEWSNADVMNYINWETNPSSSSGNHCGTLSRASGFLKWRENYCNLELPYVCKGGGSGGGSGGGS
4. Mbl2 CRD-mouse IgG2a-Fc fusion protein (Fc fusion) KVGKKYFVSSVKKMSLDRVKALCSEFQGSVATPRNAEENSAIQKVAKDIAYLGITDVRVEGSFEDLTGNRVRYTNWNDGEPNNTGDGEDCVVILGNGKWNDVPCSDSFLAICEGGGSGGGSGGGS

Response:
1: 1.55; 2: -0.044; 3: -0.009; 4: 0.14

Your task in this section: give Mean normalized OD for each listed record.
1. Klrb1c CRD-mouse IgG2a-Fc fusion protein (Fc fusion) HRDKCFHVSQVSNTWEEGQADCGRKGATLLLIQDQEELRFLLDSIKEKYNSFWIGLRFTLPDMNWKWINGTTFNSDVLKITGVTENGSCASILGDKVTPESCASDNRWICQGGGSGGGSGGGS
2. Ly75_7 CRD-mouse IgG2a-Fc fusion protein (Fc fusion) YLNNLYKIISKPLTWHGALKECMKEKMRLVSITDPYQQAFLAVQATLRNSSFWIGLSSQDDELNFGWSDGKRLQFSNWAGSNEQLDDCVILDTDGFWKTADCDDNQPGAICYYGGGSGGGSGGGS
3. Ly75_3 CRD-mouse IgG2a-Fc fusion protein (Fc fusion) KDAESDKLCPPDEGWKRHGETCYKIYEKEAPFGTNCNLTITSRFEQEFLNYMMKNYDKSLRKYFWTGLRDPDSRGEYSWAVAQGVKQAVTFSNWNFLEPASPGGCVAMSTGKTLGKWEVKNCRSFRALSICKKGGGSGGGSGGGS

Response:
[0.001, 0.001, 0.002]
